assay: yeast display, Sf9 membrane polyspecificity reagent, FACS + sequencing; frameworks hold sequencing errors

| ENTRY_SEQUENCE | polyreactivity (PSR sort gate) |
| --- | --- |
| QVQLVESCGGLIQAGGSLRLSCAASGSTFPYYAMGWYRQAPGKEREFVAAIRFSGSSTYYADSVKGRFTISRDNAMNTVFLQMNRLKPEDTAVYYCATDYWLPSYSYDYWGQGTQVTVSS | low polyreactivity |
| QVQLVESGGGLVQAGGSLRLSCAASGSTFQYYDMGWYRQAPGKERELVASITGSGDSTYYADSVKGRFTISRDNAKNTVYLQMNSLKPEDSAVYYCAAQNTWSGDYDYWGQGTQVTVSS | low polyreactivity |

====

assay: yeast display, Sf9 membrane polyspecificity reagent, FACS + sequencing; frameworks hold sequencing errors
QUANTITY: polyreactivity (PSR sort gate)

# example entries with known answers
| ENTRY_SEQUENCE | polyreactivity (PSR sort gate) |
| --- | --- |
| QAQLVESGGGLVQAGGSLRLSCAASGSIFVAYDKGWYREAPWKERELVAAINFDGTSTYYADSVKGRFTISRDNAKNTVYLQMNSLKPEDTAVYYCNKRVSPTFTGQYDYWGQGTQVTVSS | low polyreactivity |
| QVQLVESGGGLVQAGGSLRLSCASSGRIFSGNAMAWYRQAPGKEMEFVASISRSGGRTRYADSVKGRFTISRDNAKNTVYLQMNSLKPEDTAVYYCAADRSRRGHLTHGYWGQGTQVTVSS | high polyreactivity |
| QVQLVESGGGLVQAGGSLRLSCAASGLTFRYYAMGWDRPAPGKERELVAAITASVGSTYYADSVKGRFTISRDNAKNTVYLQMNSLNPEDTAVYYCNADLSYFFGPYWGLYGLDYWGQGTQVTVSS | low polyreactivity |
| QVQLVESGGGLVQAGGSLRLSCAASGSIFWYYAMGWYRQAPGKERELVARITFSGSRTHYADSVKGRFTISRDNAKNTVYLQMNSLKPEDTSVYYCATDTVYGNDYWGQGTQVTVSS | low polyreactivity |
| QVQLVESGGGLVQAGGSLRLSCAASGRIFYRYAMGWYRQAPGKERELVAAITGSGGSTYYADSVKGRFTISRDNAKNTVYLQMNSLKPEDTAVYYCNAVYARYGSQGYEYWGHGTQVTVSS | high polyreactivity |

For the sequence QVQLVESGGGLVQAGGSLRLSCAASGGIFLPYAMGWYRQAPGKERELVAGITTSGGSTYYADSVKGRFTISRDNAKNTVYLQMNSLKPEDTAVYYCAKKSSLFKHVVRYDYWGQGTQVTVSS , report polyreactivity (PSR sort gate).
low polyreactivity

Using known records, supply polyreactivity (PSR sort gate) for QVQLVESGGGLVQAGGSLRLICAASGFTFRTYAMGWYRQAPGKERELVAAINYSGGSTYYADSVKGRFTISRDNAKNTVYLQMNSVKPEDTAVYYCNKQRDVQVYVRYPMNYWGQGTQVTVSS
low polyreactivity

Please report polyreactivity (PSR sort gate) for the following sequence: QVQLVESGGGLVQAGGTLRLSCAASGFNFASYAMGWYRQAPGKERELVDAITSDGSTNYADSVKGRFTISRDNAKNTVYLQMNSLKPEDTAVYYCAADPAKKYDQNTEYEYWGQGTQVTLSS
low polyreactivity

Please look at this sequence and report its polyreactivity (PSR sort gate): QVQLVESGGGLVQAGGSLRLTCAASGSIFGAKAIGWYIQAPGKERELVAALTWSDTSTYYADSVKGRFTISRDNAKNTVYLQMNSLKPEDTAVYYCAAEYEWVTWGWGYYYWGQGTQVTVSS
high polyreactivity

Let me know recorded polyreactivity (PSR sort gate) for QVHLVESGGGLVQAGGSLRLSCAASGFTFSTYAMGVSRQAPGKEREWVAAISSGGTTNYADSEKGRFTISRDNAMNTVYLQMNCLKPEDTAVYYCATGYGRWTAYSTSYDYWGQGTQVTVSS , thanks.
low polyreactivity
